PROTOCOL_TEXT: PK of single agents vs fixed dose combinations (FDC), single oral dose in healthy volunteers
Format: in vivo, human
CONDITION_PARAMETERS: Arm 2 (FDC02) vs reference (Arm 1)
MEASURED_PROPERTY: Least Square Means Ratio, Cmax (%)
One number for each entry, in %.

COc1ccc2c(O[C@@H]3C[C@H]4C(=O)N[C@]5(C(=O)NS(=O)(=O)C6CC6)C[C@H]5/C=C\CCCCN(C)C(=O)[C@@H]4C3)cc(-c3nc(C(C)C)cs3)nc2c1C [SMV, Simeprevir, reference compound]    116.50

input: // Input: COC(=O)N[C@H](C(=O)N1[C@H](c2nc3cc(-c4cc5ccc4CCc4ccc(c(-c6ccc7[nH]c([C@@H]8C[C@@H]9CCCC[C@@H]9N8C(=O)[C@@H](NC(=O)OC)C(C)C)nc7c6)c4)CC5)ccc3[nH]2)C[C@@H]2CCCC[C@@H]21)C(C)C [ODV, Odalasvir] . Output its Least Square Means Ratio, Cmax only.
output: 81.00
